The values you see were collected from patent US20250129027A1.

biological target: human recombinant MAGL (Homo sapiens (Human), UniProt Q99685); test: In vitro inhibition of MAGL activity (inhibitor screening kit, 4-nitrophenylacetate); conditions: human recombinant MAGL
Sequence (Q99685 whole entry): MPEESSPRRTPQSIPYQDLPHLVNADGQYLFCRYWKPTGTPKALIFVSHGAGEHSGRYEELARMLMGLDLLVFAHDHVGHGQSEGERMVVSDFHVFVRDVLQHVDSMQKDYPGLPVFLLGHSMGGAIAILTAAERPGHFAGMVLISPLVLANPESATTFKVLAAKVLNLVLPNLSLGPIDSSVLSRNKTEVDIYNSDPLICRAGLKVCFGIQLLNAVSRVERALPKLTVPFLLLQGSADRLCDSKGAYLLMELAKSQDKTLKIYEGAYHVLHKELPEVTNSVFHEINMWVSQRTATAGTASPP
measured-attribute: IC50

Solved entries (count: 5):
| compound | IC50 |
| --- | --- |
| O=C(NC1CCCCC1)Oc1cccc(-c2cncc(-c3ccc[nH]3)c2)c1 | > 10 µM |
| COc1ccc(OC(=O)NC2CCCCCC2)cc1-c1cncc(-c2nnco2)c1 | > 10 µM |
| O=C(Nc1cnccc1Cl)N1CCN(Cc2ccc3c(c2)OC(F)(F)O3)CC1 [JNJ-42165279, reference compound] | > 50 µM |
| COc1ccc(OC(=O)NC2CCCCCC2)cc1-c1cncc(-c2nncs2)c1 | > 10 µM |
| O=C(NCC1CCCCC1)Oc1cccc(-c2cncc(C(F)(F)F)c2)c1 | > 1 µM |

Could you report IC50 for every entry in the following list?
1. O=C(NCC1CCCCC1)Oc1cccc(-c2cncc(-c3nnco3)c2)c1
2. O=C(NC1CCCC1)Oc1cccc(-c2cncc(-c3nccs3)c2)c1
3. COc1ccc(OC(=O)NC2CCC(C)CC2)cc1-c1cncc(-c2nnco2)c1 (stereo not drawn)

1. > 10 µM
2. > 10 µM
3. > 10 µM

Provide IC50 for all items below, preserving their order.
1. O=C(NC1CCCCC1)Oc1cc(O)cc(-c2cncc(-c3nnco3)c2)c1
2. O=C(NC1CCCCC1)Oc1cccc(-c2cncc(-c3ccco3)c2)c1

1: > 50 µM; 2: > 10 µM
